- Test system: NCI-H522 lung
- procedure summary: NCI tumour cell line growth inhibition, 48 h
molecules and their reported TGI
endpoint: TGI

>  <molecule>
CCOC(=O)Nc1nc2ccccc2[nH]1

>  <endpoint>
TGI

>  <value>
> 79.3 µM

$$$$
>  <molecule>
O=C1CNC(=O)/C(=C/c2c[nH]c3ccccc23)N1

>  <endpoint>
TGI

>  <value>
> 100 µM

$$$$
>  <molecule>
CN(C)CCCNc1ccc2nnn3c4ccc(OC(=O)c5ccccc5)cc4c(=O)c1c23

>  <endpoint>
TGI

>  <value>
10.5 µM

$$$$
>  <molecule>
O=c1[nH]c2cc([N+](=O)[O-])ccc2nc1/C(=N/Nc1ccccc1)C(O)c1ccco1 (stereo not given)

>  <endpoint>
TGI

>  <value>
> 100 µM

$$$$
>  <molecule>
N#COc1ccc(Oc2ccccc2)cc1

>  <endpoint>
TGI

>  <value>
> 100 µM

$$$$
>  <molecule>
C=C1C(=O)O[C@H]2C1C[C@@H](O)/C(C)=C/CC[C@@]1(C)O[C@H]21 (stereo not given in full)

>  <endpoint>
TGI

>  <value>
15.1 µM

$$$$
>  <molecule>
O=C1N2Cc3c4ccc5c3CN3C(=O)N6Cc7c(ccc(c7CN1C6(c1ccccc1)C23c1ccccc1)OCCOCCOc1cc(Br)c(Br)cc1OCCOCCO4)OCCOCCOc1cc(Br)c(Br)cc1OCCOCCO5 (stereo not given)

>  <endpoint>
TGI

>  <value>
> 100 µM

$$$$
>  <molecule>
CCC1C(C#N)=C(O)NC(O)=C1C#N

>  <endpoint>
TGI

>  <value>
> 100 µM

$$$$
>  <molecule>
O=C1/C=C/[C@@H](O)[C@@H]2C[C@@H](O)C[C@H]2/C=C/CCC[C@H](CCc2ccc3ncccc3c2)O1

>  <endpoint>
TGI

>  <value>
0.523 µM

$$$$
>  <molecule>
Cc1cc(S(=O)(=O)Nc2nnc3c4ccccc4cnn23)c(S)cc1Cl

>  <endpoint>
TGI

>  <value>
> 100 µM

$$$$
